Target: Vascular endothelial growth factor receptor 2 (Homo sapiens)
Sequence (P35968 whole entry): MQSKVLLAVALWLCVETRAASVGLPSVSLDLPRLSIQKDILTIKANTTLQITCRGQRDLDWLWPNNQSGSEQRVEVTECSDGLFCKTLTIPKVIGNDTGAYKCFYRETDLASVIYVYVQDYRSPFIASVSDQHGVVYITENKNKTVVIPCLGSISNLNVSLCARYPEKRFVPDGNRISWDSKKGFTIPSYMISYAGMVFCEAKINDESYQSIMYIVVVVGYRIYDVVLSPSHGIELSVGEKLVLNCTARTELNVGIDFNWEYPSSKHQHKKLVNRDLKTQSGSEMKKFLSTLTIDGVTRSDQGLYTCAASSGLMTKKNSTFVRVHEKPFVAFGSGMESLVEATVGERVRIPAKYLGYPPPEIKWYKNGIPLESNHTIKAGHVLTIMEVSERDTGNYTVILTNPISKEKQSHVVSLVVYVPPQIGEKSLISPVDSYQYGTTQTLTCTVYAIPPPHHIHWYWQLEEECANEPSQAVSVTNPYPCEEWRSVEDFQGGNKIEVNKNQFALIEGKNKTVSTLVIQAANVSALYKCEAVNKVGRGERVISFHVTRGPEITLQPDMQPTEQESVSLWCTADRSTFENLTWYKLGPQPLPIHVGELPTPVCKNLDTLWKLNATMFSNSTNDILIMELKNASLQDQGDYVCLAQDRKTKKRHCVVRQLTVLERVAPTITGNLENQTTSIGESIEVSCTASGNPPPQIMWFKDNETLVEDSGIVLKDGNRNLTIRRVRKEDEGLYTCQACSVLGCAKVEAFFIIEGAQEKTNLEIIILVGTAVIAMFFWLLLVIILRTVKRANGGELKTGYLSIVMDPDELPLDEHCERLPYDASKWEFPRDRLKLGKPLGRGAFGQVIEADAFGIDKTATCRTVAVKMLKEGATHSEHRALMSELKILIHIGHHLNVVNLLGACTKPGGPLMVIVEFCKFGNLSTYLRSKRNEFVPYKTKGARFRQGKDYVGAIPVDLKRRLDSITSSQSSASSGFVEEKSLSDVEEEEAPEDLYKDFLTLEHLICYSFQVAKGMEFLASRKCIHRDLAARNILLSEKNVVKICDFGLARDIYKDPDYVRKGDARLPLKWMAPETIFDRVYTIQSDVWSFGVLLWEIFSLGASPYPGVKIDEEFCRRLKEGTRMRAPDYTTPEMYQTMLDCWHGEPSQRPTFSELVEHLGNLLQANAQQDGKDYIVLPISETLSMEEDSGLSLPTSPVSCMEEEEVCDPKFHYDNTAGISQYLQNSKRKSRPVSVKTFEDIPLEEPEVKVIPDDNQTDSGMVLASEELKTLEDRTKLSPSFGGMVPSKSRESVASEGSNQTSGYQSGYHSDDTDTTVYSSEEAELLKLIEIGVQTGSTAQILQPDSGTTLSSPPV
Test: Inhibition of phosphorylated-Kdr after 30 mins
pKi: −log10 of the molar value.
Attribute measured: pKi

Here's what some known entries look like.
For record O=C(Nc1ccc(Cl)cc1)c1ccccc1NCc1ccncc1 the listed pKi is 7.82

For record O=C(Nc1cc(C(F)(F)F)cc(C(F)(F)F)c1)c1cccnc1NCc1ccncc1 the listed pKi is 8.10

For record O=C(Nc1ccc(OC(F)(F)F)cc1)c1cccnc1NCc1ccncc1 the listed pKi is 7.64

For record O=C(Nc1ccc(Cl)c(Cl)c1)c1cccnc1NCc1ccncc1 the listed pKi is 7.77

P: O=C(Nc1ccc(Oc2ccccc2)cc1)c1cccnc1NCc1ccc2c(c1)OCO2
Q: O=C(Nc1ccc(Oc2ccccc2)cc1)c1cccnc1Nc1ccc2cn[nH]c2c1
R: O=C(Nc1ccc(Cl)c(C(F)(F)F)c1)c1cccnc1NCc1ccncc1
S: O=C(Nc1ccc(Cl)cc1)c1cncnc1NCc1ccncc1
Arrange items by their pKi values in increasing order. Order the labels as requested and list them.
S, Q, P, R
